Here the recorded logD is given for each entry.
- assay: Distribution coefficient, logD of compound
- Assay type: physicochemical
- assay-setup: octanol/water; read-out: logD
property-name: logD

smiles_structure=Nc1nccc(-c2cc3c4c(n[nH]c4c2)N[C@@H]2CCC[C@H]2O3)n1 property_name=logD result_comparator== recorded_number=2.8
smiles_structure=c1ccc2c(c1)Nc1n[nH]c3cccc(c13)O2 property_name=logD result_comparator=> recorded_number=4

====

- assay: in vivo
- assay-setup: NMRI, mouse, ip, 10 mg/kg
property-name: Tmax at 24 h

smiles_structure=CCOc1cc(-c2ccnc(N)n2)cc2[nH]nc(N)c12 property_name="Tmax at 24 h" result="0.25 to 5 h"
smiles_structure=Cn1nc2c3c(cc(-c4ccnc(N)n4)cc31)Oc1ccccc1N2 property_name="Tmax at 24 h" result="0.25 to 5 h"

====

- assay: Ratio of drug concentration in brain to blood in NMRI mouse at 10 mg/kg, ip measured at 4 hrs by LC-MS/MS analysis
- Type: ADME, organism-based
- assay-setup: brain and blood, read-out: BBR
Here the recorded Kp at 4 h is given for each entry.
property-name: Kp at 4 h

smiles_structure=CCOc1cc(-c2ccnc(N)n2)cc2[nH]nc(N)c12 recorded_number=0.214
smiles_structure=Cn1nc2c3c(cc(-c4ccnc(N)n4)cc31)Oc1ccccc1N2 recorded_number=2.12

====

- assay: Distribution coefficient, logD of compound
- Assay type: physicochemical
- assay-setup: octanol/water
Here the recorded logD is given for each entry.
property-name: logD

smiles_structure=c1ccc2c(c1)Nc1n[nH]c3cc(-c4ccncn4)cc(c13)O2 property_name=logD result_comparator== recorded_number=3.5
smiles_structure=Nc1cc(-c2cc3c4c(n[nH]c4c2)Nc2ccccc2O3)ncn1 property_name=logD result_comparator== recorded_number=3.8
smiles_structure=CN(C)c1nccc(-c2cc3c4c(n[nH]c4c2)Nc2ccccc2O3)n1 property_name=logD result_comparator=> recorded_number=3.9
smiles_structure=CC(C)Nc1cc(-c2cc3c4c(n[nH]c4c2)Nc2ccccc2O3)nc(N)n1 property_name=logD result_comparator== recorded_number=4.9
smiles_structure=Nc1nc(-c2cc3c4c(n[nH]c4c2)Nc2ccccc2O3)cc(N2CCCCC2)n1 property_name=logD result_comparator== recorded_number=4.6
smiles_structure=CN1CCN(c2cc(-c3cc4c5c(n[nH]c5c3)Nc3ccccc3O4)nc(N)n2)CC1 property_name=logD result_comparator== recorded_number=3.4
smiles_structure=Cn1nc2c3c(cc(-c4ccnc(N)n4)cc31)Oc1ccccc1N2 property_name=logD result_comparator=> recorded_number=4.3
smiles_structure=Nc1cccc(-c2cc3c4c(n[nH]c4c2)Nc2ccccc2O3)n1 property_name=logD result_comparator== recorded_number=3.7
smiles_structure=Nc1ccnc(-c2cc3c4c(n[nH]c4c2)Nc2ccccc2O3)n1 property_name=logD result_comparator== recorded_number=4.1
smiles_structure=CN(C)c1cc(-c2cc3c4c(n[nH]c4c2)Nc2ccccc2O3)nc(N)n1 property_name=logD result_comparator=> recorded_number=4.4

====

- assay: Intrinsic clearance in rat hepatocytes assessed per 10^6 cells by LC-MS/MS analysis
- Type: ADME, cell-based, Hepatocyte
- assay-setup: read-out: CLH
property-name: hepatocyte CLint (µL/min/1e6 cells)

smiles_structure=Nc1nccc(-c2cc3c4c(n[nH]c4c2)N[C@@H]2CCC[C@H]2O3)n1 recorded_number=52
